Recorded pIC50 values (human-cGAS (h-cGAS) (Homo sapiens)) are given below.
pIC50: −log10 of the molar value.

Solved cases below.
CSc1nnc(NC(=O)c2cc(-c3ncc4ccccc4n3)no2)s1 [Compound 153] : 6.30 to 7.00
Cc1c(-c2cc(C(=O)Nc3nnc(-c4ccccc4Cl)s3)on2)cnn1C [Compound 53] : 6.30 to 7.00
Cn1cc(-c2cc(C(=O)Nc3nnc(-c4ccccc4Cl)s3)on2)cn1 [Compound 52] : 6.30 to 7.00
CCCc1nnc(NC(=O)c2onc3ccccc23)s1 [Compound 20] : ≤ 6.00
CSc1nnc(NC(=O)c2noc(C3CCCCC3)n2)s1 [Compound 263] : ≤ 6.00
CSc1nnc(NC(=O)c2onc3c2ccc2ncccc23)s1 [Compound 271] : 6.00 to 6.30
Cn1nccc1-c1nnc(NC(=O)c2onc3ccccc23)s1 [Compound 146] : ≤ 6.00
CSc1nnc(NC(=O)c2nnc(N3CCC(C(=O)O)C3)o2)s1 (centres unmarked) [Compound 112] : 6.30 to 7.00
O=C(Nc1nnc(-c2nccs2)s1)c1onc2ccccc12 [Compound 131] : 6.30 to 7.00
CSc1nnc(NC(=O)c2cc(-c3ccccc3)c(C)c(=O)o2)s1 [Compound 203] : 6.30 to 7.00

Observed pIC50, human-cGAS (h-cGAS) (Homo sapiens), CSc1nnc(NC(=O)c2onc3ccc(Cl)cc23)s1 [Compound 229] : 6.00 to 6.30

Given the molecule COCCNC(=O)c1cc(C(=O)Nc2nnc(-c3ccccc3Cl)s2)on1 [Compound 88] and test system human-cGAS (h-cGAS) (Homo sapiens), the measured pIC50 is 6.00 to 6.30

Here CSc1nnc(NC(=O)c2onc3ccc(C(O)c4ccccc4)cc23)s1 (centres unmarked) [Compound 166] was tested on human-cGAS (h-cGAS) (Homo sapiens), and its pIC50 came to ≤ 6.00

Here CSc1nnc(NC(=O)c2nnc(N3CCC[C@@H]3c3ccccc3)o2)s1 [Compound 125] was tested on human-cGAS (h-cGAS) (Homo sapiens), and its pIC50 came to 6.30 to 7.00

Entry CSc1nnc(NC(=O)c2onc3c2CN(C(=O)OC(C)(C)C)CC3)s1 [Compound 43] ; assay system human-cGAS (h-cGAS) (Homo sapiens); pIC50 recorded at ≤ 6.00

Noted pIC50 for Cc1nnc(NC(=O)c2onc3ccccc23)s1 [Compound 81] , tested on human-cGAS (h-cGAS) (Homo sapiens): ≤ 6.00

Tested on human-cGAS (h-cGAS) (Homo sapiens), the item CCc1nnc(NC(=O)c2onc3ccccc23)s1 [Compound 69] showed pIC50 equal to 6.00 to 6.30

# lookup: CSc1nnc(NC(=O)c2cc(-c3ccc(Cl)cc3)cc(=O)o2)s1 [Compound 243] on human-cGAS (h-cGAS) (Homo sapiens), pIC50 = 6.00 to 6.30

Tested system human-cGAS (h-cGAS) (Homo sapiens); pIC50 recorded for CSc1nnc(NC(=O)c2nnc(N3CCCCC3c3ccccc3)o2)s1 (centres unmarked) [Compound 149] was 6.00 to 6.30

Field pIC50 (system: human-cGAS (h-cGAS) (Homo sapiens)) for entry CSc1nnc(NC(=O)c2noc(-c3ccccn3)n2)s1 [Compound 104] = 6.00 to 6.30

// assay human-cGAS (h-cGAS) (Homo sapiens), entry COc1cccc2c1CCc1c-2noc1C(=O)Nc1nnc(SC)s1 [Compound 172] , pIC50 value = ≤ 6.00

CSc1nnc(NC(=O)c2onc3ccc(C)cc23)s1 [Compound 227] tested on human-cGAS (h-cGAS) (Homo sapiens) gave pIC50: 6.00 to 6.30

Short answer on human-cGAS (h-cGAS) (Homo sapiens) for O=C(Nc1nnc(-c2cccc(Cl)c2Cl)s1)c1cc(O)no1 [Compound 57] , pIC50: > 7.00
